dTm reference
targetOrSystem: ~100 representative kinases (Homo sapiens, UniProt Q09013)
Construct: Recombinant protein kinase domains with a concentration of 2 μM
Sequence (Q09013 whole entry, the tested form may be a part): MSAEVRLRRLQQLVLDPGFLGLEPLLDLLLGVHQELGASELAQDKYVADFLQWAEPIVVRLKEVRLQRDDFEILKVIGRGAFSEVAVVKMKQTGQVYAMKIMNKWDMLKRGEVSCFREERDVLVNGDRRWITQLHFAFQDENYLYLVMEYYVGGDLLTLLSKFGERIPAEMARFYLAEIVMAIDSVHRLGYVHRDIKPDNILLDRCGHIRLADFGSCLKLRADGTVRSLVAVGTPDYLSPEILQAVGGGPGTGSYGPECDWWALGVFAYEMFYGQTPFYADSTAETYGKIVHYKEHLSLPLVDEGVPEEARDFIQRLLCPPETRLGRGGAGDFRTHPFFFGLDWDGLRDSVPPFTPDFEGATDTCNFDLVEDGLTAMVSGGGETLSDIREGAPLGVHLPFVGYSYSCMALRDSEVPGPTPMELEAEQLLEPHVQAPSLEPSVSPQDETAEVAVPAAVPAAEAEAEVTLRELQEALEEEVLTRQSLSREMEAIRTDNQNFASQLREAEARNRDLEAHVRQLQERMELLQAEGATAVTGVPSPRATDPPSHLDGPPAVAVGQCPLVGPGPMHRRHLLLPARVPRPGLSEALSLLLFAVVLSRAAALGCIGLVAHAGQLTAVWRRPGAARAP
assayMethodText: DSF 100 kinase selectivity screen;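 also: compound tested at 20 µM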
Format: binding
measurementParameters: Protein DMPK1; average of three replicates
measuredAttribute: dTm (K)

In [3]: df
Out[3]:
                                    molecule  resultvalue
 0  O=C(Nc1ccc(F)cc1)C1(C(=O)Nc2cccc(-c3c[nH]c4ncnc(N5CCOCC5)c34)c2)CC1 [Compound 2]        -0.63
 1  COc1ccc(NC(=O)C2(C(=O)Nc3cccc(-c4c[nH]c5ncnc(N6CCOCC6)c45)c3)CC2)cc1 [Compound 16]        -0.98
 2  Cc1ccc(-n2nc(C(C)(C)C)cc2NC(=O)Nc2cccc(-c3c[nH]c4nc(Cl)nc(N5CCOCC5)c34)c2)cc1 [Compound 30]        -0.04
 3  O=C(Nc1cccc(-c2c[nH]c3ncnc(N4CCOCC4)c23)c1)C1(C(=O)Nc2ccc(F)c(Cl)c2)CC1 [Compound 18]        -0.69
 4  CC(=O)N1CCN(c2nc(Cl)nc3[nH]cc(-c4cccc(NC(=O)Nc5cc(C(C)(C)C)nn5-c5ccc(C)cc5)c4)c23)CC1 [Compound 31]        -0.66
 5  Cc1ccc(C(=O)Nc2ccc(CN3CCN(C)CC3)c(C(F)(F)F)c2)cc1C#Cc1cnc2[nH]ncc2c1 [GZD-824, reference compound]         3.13
 6  CCNc1nc(Nc2cc(F)c(C(=O)N3CCOCC3)cc2OC)ncc1C(F)(F)F [GNE-7915]         0.77
 7  Cc1ccc(NC(=O)C2(C(=O)Nc3cccc(-c4c[nH]c5ncnc(N6CCOCC6)c45)c3)CC2)cc1 [Compound 14]        -0.76
 8  CCc1ccc(NC(=O)C2(C(=O)Nc3cccc(-c4c[nH]c5ncnc(N6CCOCC6)c45)c3)CC2)cc1 [Compound 15]        -1.02
 9  O=C(Nc1cc(F)cc(Br)c1)C1(C(=O)Nc2cccc(-c3c[nH]c4ncnc(N5CCOCC5)c34)c2)CC1 [Compound 27]        -0.12
10  O=C(Nc1cccc(-c2c[nH]c3ncnc(N4CCOCC4)c23)c1)C1(C(=O)Nc2ccc(F)c(F)c2)CC1 [Compound 17]        -0.94
11  COc1cc2c(Oc3ccc(NC(=O)C4(C(=O)Nc5ccc(F)cc5)CC4)cc3F)ccnc2cc1OCCCN1CCOCC1 [Foretinib, reference compound]        -0.67
12  CNC(=O)c1cc(Oc2ccc(NC(=O)Nc3cc(C(C)(C)C)nn3-c3ccc4ncccc4c3)c(F)c2)ccn1 [Rebastinib, reference compound]        -0.79
13  CC(C)(C)c1cc(NC(=O)Nc2cccc(-c3c[nH]c4ncnc(N5CCOCC5)c34)c2)n(-c2ccc3ncccc3c2)n1 [Compound 28]        -2.53
14  O=C(Nc1cccc(-c2c[nH]c3ncnc(N4CCOCC4)c23)c1)C1(C(=O)Nc2cc(Br)c(F)cc2F)CC1 [Compound 25]         0.24
15  O=C(Nc1ccc(Cl)cc1)C1(C(=O)Nc2cccc(-c3c[nH]c4ncnc(N5CCOCC5)c34)c2)CC1 [Compound 13]        -0.32
16  COc1cc(S(C)(=O)=O)ccc1Nc1nc(N(C)C)c2c(Cl)c[nH]c2n1 [Compound 37]       0.0114
17  O=C(Nc1cccc(-c2c[nH]c3ncnc(N4CCOCC4)c23)c1)C1(C(=O)Nc2ccc(F)cc2F)CC1 [Compound 23]        -0.57
18  Cc1ccc(C(=O)Nc2ccc(CN3CCN(C)CC3)c(C(F)(F)F)c2)cc1C#Cc1c[nH]c2ncnc(N3CCOCC3)c12 [Compound 1]         0.98
19  CCSc1nc(NC)c2c(-c3cccc(NC(=O)Nc4cc(C(C)(C)C)nn4-c4ccc(C)cc4)c3)c[nH]c2n1 [Compound 32]         0.38
20  Cc1cc(NC(=O)C2(C(=O)Nc3cccc(-c4c[nH]c5ncnc(N6CCOCC6)c45)c3)CC2)ccc1F [Compound 20]        -1.17
21  COc1cc(NC(=O)C2(C(=O)Nc3cccc(-c4c[nH]c5ncnc(N6CCOCC6)c45)c3)CC2)ccc1F [Compound 21]        -1.06
22  C[C@@H]1CN(c2cc(-c3n[nH]c4ccc(OC5(C)CC5)cc34)ncn2)C[C@H](C)O1 [MLi2]         0.14
23  Cn1cc(-c2c[nH]c3ncnc(N4CCOCC4)c23)cc1C#N [PFE-360]         1.66
24  O=C(Nc1cccc(-c2c[nH]c3ncnc(N4CCOCC4)c23)c1)C1(C(=O)Nc2cccc3c2CCC3)CC1 [Compound 11]        -0.08

Origin of measurements: paper PMC12136037
